test: Phase I trial: plasma pharmacokinetics of topotecan and lapatinib; settings: human, plasma, oral, Lapatinib Tmax, lapatinib alone (day 7), median and range
quantity.measured: Tmax (h)
Express it in h; write the number only.

Record CS(=O)(=O)CCNCc1ccc(-c2ccc3ncnc(Nc4ccc(OCc5cccc(F)c5)c(Cl)c4)c3c2)o1 [lapatinib] , field Tmax: 3

----------
assay: Phase I trial: plasma pharmacokinetics of topotecan and lapatinib; conditions: human, plasma, oral, Lapatinib AUC0–24 h, lapatinib alone (day 7), n = 9, geometric mean and 95% CI
quantity.measured: AUC(0-t) (ng·h/mL)
Express it in ng·h/mL; write the number only.

Record CS(=O)(=O)CCNCc1ccc(-c2ccc3ncnc(Nc4ccc(OCc5cccc(F)c5)c(Cl)c4)c3c2)o1 [lapatinib] , field AUC(0-t): 23300

----------
assay: Phase I trial: plasma pharmacokinetics of topotecan and lapatinib; conditions: human, plasma, intravenous, Topotecan Cmax, topotecan alone (day 1), n = 9, geometric mean and 95% CI
quantity.measured: Cmax (ng/mL)
Express it in ng/mL; write the number only.

Record CC[C@@]1(O)C(=O)OCc2c1cc1n(c2=O)Cc2cc3c(CN(C)C)c(O)ccc3nc2-1 [topotecan] , field Cmax: 162

src = paper PMC2725396
